# Tested on: 885724-159-R-J1-PDC complex spheroid viability;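 further: spheroids exposed to agents for seven days before readout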
# Procedure text: Anticancer human tumor 885724-159-R-J1-PDC patient-derived pancreatic adenocarcinoma cell line growth inhibition [GQUAD]
# Condition summary: curve of first compound; second compound 3.16 µM
Measurement name: IC50

Known results for molecules:
>  <Molecule>
COc1ccc([C@@H](O)c2cc(-c3ncnc4cc(N5CCOCC5)ccc34)c(F)cc2Cl)nn1 + Cc1[nH]c2ccc(F)cc2c1-c1nc2c3cccnc3c3ncccc3c2[nH]1

>  <Measurement name>
IC50

>  <Val>
< 31.6 nM

$$$$
>  <Molecule>
COc1ncnc(C2CC2)c1-c1ncc2cnn(Cc3ccc(-c4nc(C(F)(F)F)cn4C(C)C)cc3)c2n1 + Cc1[nH]c2ccc(F)cc2c1-c1nc2c3cccnc3c3ncccc3c2[nH]1

>  <Measurement name>
IC50

>  <Val>
< 31.6 nM

$$$$
>  <Molecule>
COc1cc(C2c3cc4c(cc3C(OC3OC5COC(C)OC5C(O)C3O)C3COC(=O)C23)OCO4)cc(OC)c1O (stereo unspecified) + Cc1[nH]c2ccc(F)cc2c1-c1nc2c3cccnc3c3ncccc3c2[nH]1

>  <Measurement name>
IC50

>  <Val>
< 31.6 nM

$$$$
>  <Molecule>
C=CCn1c(=O)c2cnc(Nc3ccc(N4CCN(C)CC4)cc3)nc2n1-c1cccc(C(C)(C)O)n1 + Cc1[nH]c2ccc(F)cc2c1-c1nc2c3cccnc3c3ncccc3c2[nH]1

>  <Measurement name>
IC50

>  <Val>
< 31.6 nM

$$$$
>  <Molecule>
CC(=O)O[C@H]1C(=O)[C@@]2(C)[C@H]([C@H](OC(=O)c3ccccc3)[C@]3(O)C[C@H](OC(=O)[C@H](O)[C@@H](NC(=O)c4ccccc4)c4ccccc4)C(C)=C1C3(C)C)[C@]1(OC(C)=O)CO[C@@H]1C[C@@H]2O + Cc1cnc(CNC(=O)c2c(=O)c3ccc(N4CCCN(C)CC4)nc3n3c2sc2ccccc23)cn1

>  <Measurement name>
IC50

>  <Val>
> 10000 nM

$$$$
>  <Molecule>
Nc1ccn(C2OC(CO)C(O)C2(F)F)c(=O)n1 (stereo unspecified) + Cc1cnc(CNC(=O)c2c(=O)c3ccc(N4CCCN(C)CC4)nc3n3c2sc2ccccc23)cn1

>  <Measurement name>
IC50

>  <Val>
> 10000 nM

$$$$
>  <Molecule>
CCCS(=O)(=O)Nc1ccc(F)c(C(=O)c2c[nH]c3ncc(-c4ccc(Cl)cc4)cc23)c1F + Cc1cnc(CNC(=O)c2c(=O)c3ccc(N4CCCN(C)CC4)nc3n3c2sc2ccccc23)cn1

>  <Measurement name>
IC50

>  <Val>
> 10000 nM

$$$$
>  <Molecule>
C=CC(=O)N1CCN(c2nc(=O)n(-c3c(C)ccnc3C(C)C)c3nc(-c4c(O)cccc4F)c(F)cc23)C(C)C1 (stereo unspecified) + Cc1[nH]c2ccc(F)cc2c1-c1nc2c3cccnc3c3ncccc3c2[nH]1

>  <Measurement name>
IC50

>  <Val>
< 31.6 nM

$$$$
>  <Molecule>
COc1ncnc(C2CC2)c1-c1ncc2cnn(Cc3ccc(-c4nc(C(F)(F)F)cn4C(C)C)cc3)c2n1 + CN(C)c1ccc(Nc2c3ccc(NC(=O)CCN4CCCC4)cc3nc3cc(NC(=O)CCN4CCCC4)ccc23)cc1

>  <Measurement name>
IC50

>  <Val>
> 10000 nM

$$$$
>  <Molecule>
CC(C)(O)C1CCC(Nc2ccc3ncc(-c4cccc(C(F)(F)F)c4)n3n2)CC1 (stereo unspecified) + Cc1[nH]c2ccc(F)cc2c1-c1nc2c3cccnc3c3ncccc3c2[nH]1

>  <Measurement name>
IC50

>  <Val>
< 31.6 nM

$$$$

Next, consider the following molecule.
Looking up O=c1[nH]cc(F)c(=O)[nH]1 + Cc1cnc(CNC(=O)c2c(=O)c3ccc(N4CCCN(C)CC4)nc3n3c2sc2ccccc23)cn1 , I found its IC50 recorded as > 10000 nM

These entries and their values trace back to PubChem BioAssay AID2060502.
